PROCEDURE SUMMARY: Lethality after intravenous bolus injection
Assay type: in vivo, Sprague-Dawley rats
APPLIED CONDITIONS: Sprague-Dawley, rat, in vivo, iv, 20 mg/kg
MEASURED METRIC: LD50 (mg/kg)
# value in mg/kg; strip the unit string

q: // lookup LD50 for CCOC(=O)c1cncn1[C@H](C)c1ccccc1 [R-etomidate, reference compound]
a: 20

====

EXPERIMENTAL SYSTEM: α1(L264T)β1γ2L GABAA receptors (Homo sapiens, UniProt P14867+P18505, L291T)
Sequence (P14867 28-456 L291T): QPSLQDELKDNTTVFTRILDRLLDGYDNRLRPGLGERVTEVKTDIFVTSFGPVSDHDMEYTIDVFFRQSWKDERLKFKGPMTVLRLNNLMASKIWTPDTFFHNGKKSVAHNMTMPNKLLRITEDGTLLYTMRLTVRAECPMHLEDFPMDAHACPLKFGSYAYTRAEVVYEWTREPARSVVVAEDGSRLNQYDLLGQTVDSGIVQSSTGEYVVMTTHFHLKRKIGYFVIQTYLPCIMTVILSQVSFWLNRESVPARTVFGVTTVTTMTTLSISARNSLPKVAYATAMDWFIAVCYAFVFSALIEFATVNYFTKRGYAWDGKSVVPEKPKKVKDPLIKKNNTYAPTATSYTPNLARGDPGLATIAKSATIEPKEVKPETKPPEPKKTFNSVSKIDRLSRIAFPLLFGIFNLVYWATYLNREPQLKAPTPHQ
Sequence (P18505 26-474): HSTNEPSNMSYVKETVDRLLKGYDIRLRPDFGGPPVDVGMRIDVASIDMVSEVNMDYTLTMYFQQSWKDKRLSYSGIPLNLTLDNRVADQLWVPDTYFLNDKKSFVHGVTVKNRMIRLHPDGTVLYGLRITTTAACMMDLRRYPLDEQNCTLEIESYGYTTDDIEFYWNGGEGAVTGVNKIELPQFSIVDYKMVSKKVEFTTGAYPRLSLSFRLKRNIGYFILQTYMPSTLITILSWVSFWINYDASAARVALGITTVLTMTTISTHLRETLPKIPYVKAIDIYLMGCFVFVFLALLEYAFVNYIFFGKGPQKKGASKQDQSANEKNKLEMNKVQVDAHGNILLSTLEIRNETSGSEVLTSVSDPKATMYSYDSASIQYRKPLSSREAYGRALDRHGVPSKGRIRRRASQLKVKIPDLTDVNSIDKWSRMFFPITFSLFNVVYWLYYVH
Sequence (P18507 40-475 partner): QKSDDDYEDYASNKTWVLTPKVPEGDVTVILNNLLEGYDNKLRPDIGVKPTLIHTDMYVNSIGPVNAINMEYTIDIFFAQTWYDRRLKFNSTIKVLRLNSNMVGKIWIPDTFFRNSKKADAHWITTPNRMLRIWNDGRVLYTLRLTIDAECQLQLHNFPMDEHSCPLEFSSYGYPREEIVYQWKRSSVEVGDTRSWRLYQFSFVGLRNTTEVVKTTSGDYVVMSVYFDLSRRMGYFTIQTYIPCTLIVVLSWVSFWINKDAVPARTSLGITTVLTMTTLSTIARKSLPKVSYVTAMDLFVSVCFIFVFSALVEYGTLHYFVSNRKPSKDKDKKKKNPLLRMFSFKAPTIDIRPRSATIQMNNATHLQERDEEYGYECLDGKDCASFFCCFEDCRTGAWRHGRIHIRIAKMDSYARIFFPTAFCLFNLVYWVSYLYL
MEASURED METRIC: EC50 (µM)
# value in µM; strip the unit string

MOLECULE | EC50, µM
CCOC(=O)c1cncn1Cc1ccccc1 [dihydrogen etomidate] | 400

# next molecule below
q: API: value(readout=EC50, system=α1(L264T)β1γ2L GABAA receptors (Homo sapiens, UniProt P14867+P18505, L291T)) for record CCOC(=O)c1cncn1C1(c2ccccc2)CC1 [cyclopropyl etomidate]
a: 1590
